Target: T1, zebrafish Tac3ra (tac3 receptor a, NKB receptor) (zebrafish)
T1 chain: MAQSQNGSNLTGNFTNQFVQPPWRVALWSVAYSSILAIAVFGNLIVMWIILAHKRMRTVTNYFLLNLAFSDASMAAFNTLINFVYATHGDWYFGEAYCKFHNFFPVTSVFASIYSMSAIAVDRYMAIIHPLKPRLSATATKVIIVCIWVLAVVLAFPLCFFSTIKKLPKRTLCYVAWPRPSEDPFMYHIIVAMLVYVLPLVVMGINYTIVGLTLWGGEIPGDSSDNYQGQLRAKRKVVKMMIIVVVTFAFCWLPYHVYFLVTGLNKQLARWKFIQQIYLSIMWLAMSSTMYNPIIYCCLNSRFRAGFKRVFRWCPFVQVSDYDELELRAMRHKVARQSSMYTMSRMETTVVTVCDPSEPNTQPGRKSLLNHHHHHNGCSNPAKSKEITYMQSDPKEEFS
Test Method Notes: cell-based or functional assay
*1 amine or outer side, *2 acyl side, *3 side chain or, on linkers, in order; H or OH if unused. Where no end group is shown, it is not given here. [ ]: non-standard residue; d: D form. NMeF = CN[C@@H](Cc1ccccc1)C(=O)O; Suc = O=C(CCC(=O)[*:2])[*:1]; NMeV = CN[C@H](C(=O)O)C(C)C
Binary label based on EC50, CRE-Luc to follow PKA activation, transfected COS-7 cells with cut-off 7 nM: below gives criterion met, not below gives criterion not met.

Binder	Qualitative Label
Suc-DF[NMeV]GLM-NH2 [NKBb-analog (Succ-Asp-Phe-N(Me)Val-Gly-Leu-Met-NH2)]	criterion met
YNDIDYDSFVGLM-NH2 [Zebrafish Tac3f peptide, neurokinin F (YNDIDYDSFVGLM-NH2)]	criterion met
DMHDFFVGLM-NH2 [human NKB (neurokinin B)]	criterion not met
EMHDIFVGLM-NH2 [Zebrafish Tac3a peptide, neurokinin Ba (EMHDIFVGLM-NH2)]	criterion met
STGINREAHLPFRPNMNDIFVGLL-NH2 [Zebrafish Tac3b peptide, neurokinin Bb (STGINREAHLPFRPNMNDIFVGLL-NH2)]	criterion not met
Suc-DF[NMeF]GLM-NH2 [Senktide (Succ-Asp-Phe-N(Me)Phe-Gly-Leu-Met-NH2)]	criterion not met
XDSFXGLM (N-terminal succinyl (Succ) on Asp; N(Me)Val; C-terminal amide (-NH2)) [NKF-analog (Succ-Asp-Ser-Phe-N(Me)Val-Gly-Leu-Met-NH2)]	criterion not met
